test system: U87MG.ΔEGFR cells; assay: Resazurin reduction assay, cytotoxicity on U87MG.ΔEGFR; format: cell-based, human; conditions: Homo sapiens; U87MG.ΔEGFR; 72 h; mean ± SD; read-out: IC50 values of compounds / doxorubicin
MEASUREMENT_NAME: IC50

Q) Supply IC50 value. Item: CC(=O)O[C@H]1CC[C@]2(C)[C@H]3C(=O)C=C4[C@@H]5[C@@H](C)[C@H](C)CC[C@]5(C)CC[C@@]4(C)[C@]3(C)CC[C@H]2C1(C)C [Compound 1, 3-acetoxy-11-oxo-urs-12-ene]
A) > 82.9 µM

Q) Given Oc1ccc(/C=C/c2cc(O)cc(O)c2)cc1 [Compound 4, resveratrol] , respond with its IC50.
A) 28.4 µM

Q) Please look at this compound and report its IC50: COC(=O)CC(O)(CC(=O)OC)C(=O)OC [Compound 3, citric acid trimethyl ester]
A) > 171 µM

Q) Give me measured IC50, please, for this compound: O=C(O)/C=C/c1ccc(O)cc1 [Compound 2, p-coumaric acid]
A) > 244 µM

Q) Return value of IC50 for input COc1cccc2c1C(=O)c1c(O)c3c(c(O)c1C2=O)C[C@@](O)(C(=O)CO)C[C@@H]3O[C@H]1C[C@H](N)[C@H](O)[C@H](C)O1 [doxorubicin, Doxorubicin, reference compound] , no commentary.
A) 6.11 µM

----------
test system: normal AML12 hepatocytes; test: Resazurin reduction assay, cytotoxicity on normal AML12 hepatocytes; format: cell-based; details: Mus musculus, AML12, 72 h, read-out: IC50 values of compounds / doxorubicin
pIC50: −log10 of the molar value.
MEASUREMENT_NAME: pIC50

Q) Name the recorded pIC50 of the item C=C[C@H]1[C@H](O[C@@H]2O[C@H](CO)[C@@H](O)[C@H](O)[C@H]2O)OC=C2C(=O)N3CCc4c([nH]c5ccccc45)[C@@H]3C[C@H]21 [Compound 6, strictosamide] in your answer.
A) < 4.10

----------
system: glioblastoma multiforme U87MG cells; assay: Resazurin reduction assay, cytotoxicity on U87MG; type: cell-based; details: Homo sapiens, U-87 MG; U87MG; 72 h; mean ± SD; read-out: IC50 values of compounds / doxorubicin
MEASUREMENT_NAME: IC50

Q) Using the record for `O=C(O)/C=C/c1ccc(O)cc1` , state its measured IC50.
A) > 244 µM

Q) Please supply the value of reported IC50 for the item `CC(=O)O[C@H]1CC[C@]2(C)[C@H]3C(=O)C=C4[C@@H]5[C@@H](C)[C@H](C)CC[C@]5(C)CC[C@@]4(C)[C@]3(C)CC[C@H]2C1(C)C`
A) > 82.9 µM

Q) Provide one value: measured IC50 of `COC(=O)CC(O)(CC(=O)OC)C(=O)OC`
A) > 171 µM

Q) Supply reported IC50 belonging to this molecule: COc1cccc2c1C(=O)c1c(O)c3c(c(O)c1C2=O)C[C@@](O)(C(=O)CO)C[C@@H]3O[C@H]1C[C@H](N)[C@H](O)[C@H](C)O1 [doxorubicin, Doxorubicin, reference compound]
A) 1.06 µM

Q) Given the molecule `Oc1ccc(/C=C/c2cc(O)cc(O)c2)cc1` , write its reported IC50.
A) 76.6 µM

----------
test system: U87MG.ΔEGFR cells; assay: Resazurin reduction assay, cytotoxicity on U87MG.ΔEGFR; assay type: cell-based, human; conditions: Homo sapiens, 72 h, read-out: IC50 values of compounds / doxorubicin
MEASUREMENT_NAME: IC50

Q) Respond only with IC50 recorded for C=C[C@H]1[C@H](O[C@@H]2O[C@H](CO)[C@@H](O)[C@H](O)[C@H]2O)OC=C2C(=O)N3CCc4c([nH]c5ccccc45)[C@@H]3C[C@H]21 [Compound 6, strictosamide]
A) > 80.3 µM
